System: L1210
Assay: Inhibition of L1210 leukemia cells, after exposure to compound for period of 1 hr
Assay type: functional
Settings: Mus musculus, L1210, 1 h; read-out: ID50 (the source's name)
endpointLabel: IC50 (µM)
Kindly provide the numeric value in µM only, without the unit symbol.

// recorded IC50 for CC1=C(N)C(=O)c2c(COC(N)=O)c3n(c2C1=O)CC(N)C3[18OH] (centres undefined) : 62

// recorded IC50 for CO[C@@]12[C@H](COC(N)=O)C3=C(C(=O)C(C)=C(N)C3=O)N1C[C@@H]1N[C@@H]12 [MITOMYCIN] : 3.1

// recorded IC50 for CC1=C(N)C(=O)c2c(COC(N)=O)c3n(c2C1=O)CC(N)C3OP(=O)(O)OC[C@H]1O[C@@H](n2ccc(=O)[nH]c2=O)[C@H](O)[C@@H]1O (some centres undefined) : 13.3

// recorded IC50 for CC1=C(N)C(=O)c2c(COC(N)=O)c3n(c2C1=O)CC(N)C3OP(=O)(O)OC[C@H]1O[C@@H](n2cc(F)c(=O)[nH]c2=O)C[C@@H]1O (some centres undefined) : 14
